System: U2OS
test_description: Multiplex assay against U2OS
Type: toxicity, cell-based
setup_conditions: human, 24 h, 1 µM, compound concentration 1 uM, replicate 2
observed_property: Population Normal (%)
Return type: number; implicit unit %.

Consider the compound shown here: `CC(/C=C1\SC(=S)N(CCCC(=O)Nc2ccc(C(=O)O)c(O)c2)C1=O)=C\c1ccccc1` What is its recorded Population Normal (%)?
93

`N#Cc1cccc(C(=O)Nc2cc(-c3ccccc3)nn2-c2ccccc2)c1` , same question.
95

Please do the same for `C=CC(=O)Nc1cc(-n2c(=O)ccc3cnc4ccc(-c5ccc(NS(C)(=O)=O)cc5)cc4c32)ccc1C` as well.
97

Next: N#CCNC(=O)c1ccc(-c2ccnc(Nc3ccc(N4CCOCC4)cc3)n2)cc1 [MOMELOTINIB]
89

Then `CN(c1cc(C(F)(F)F)nc(OCCC(=O)O)n1)c1cccc2c1CCC2` ?
91

What do you get for `Cl.NC[C@@H]1O[C@H](C23CC4CC(CC(C4)C2)C3)Cc2c1ccc(O)c2O` ?
97

Try this compound too: `Cc1ccc(NC(=O)Nc2cc(C(F)(F)F)ccc2F)cc1Nc1ccc2c(c1)NC(=O)/C2=C\c1ccc[nH]1`
95

Same for CC(C)[C@H](CO)Nc1nc(Nc2cccc(Cl)c2)c2ncn(C(C)C)c2n1 [PURVALANOLA]
93

###

Test system: HEK-293T
test_description: Multiplex assay against HEK293T
Assay type: toxicity, cell-based
setup_conditions: human, 12 h, 10 µM, compound concentration 10 uM, replicate 2
Below, each entry is listed with its recorded Population Healthy Nuclei (%).
# output: bare number, implied unit %

Worked cases, answers included:
Lab request: please report Population Healthy Nuclei (%) under test system HEK-293T for `C[C@@H](Oc1cc(-n2cnc3ccc(CN4CCN(C)CC4)cc32)sc1C(N)=O)c1ccccc1C(F)(F)F`
14

Queued: `Oc1cccc(-c2nc(N3CCOCC3)c3oc4ncccc4c3n2)c1`
6

Repeat for the following compound: `CCCc1cc(C)[nH]c(=O)c1CNC(=O)c1cc(-c2ccc(N3CCN(C(C)C)CC3)nc2)cc2c1cnn2C(C)C`
12

Input CCCCCNC(=N)N/N=C/c1c[nH]c2ccc(OC)cc12.O=C(O)/C=C\C(=O)O [TEGASEROD MALEATE]
3

Consider next the compound `CC(C)C[C@H](NC(=O)[C@H](Cc1ccccc1)NC(=O)CNC(=O)CNC(=O)[C@@H](N)Cc1ccc(O)cc1)C(=O)O` in the same way.
45

Then this compound: `Cc1ccc(NC(=O)Nc2cc(C(F)(F)F)ccc2F)cc1Nc1ccc2c(c1)NC(=O)/C2=C\c1ccc[nH]1`
87

Also check `Cc1c(Nc2ccc(S(=O)(=O)N3CCN(C)CC3)cc2F)nc2ccc(Nc3cnn(C4CC4)c3)cn2c1=O`
89

API: the following record is the query input.
For the record `C=CC(=O)Nc1cc(-n2c(=O)ccc3cnc4ccc(-c5ccc(NS(C)(=O)=O)cc5)cc4c32)ccc1C` , what value of Population Healthy Nuclei (%) is listed for HEK-293T?
40

###

System: Fibroblast
test_description: Multiplex assay against human fibroblast
Format: toxicity, cell-based
setup_conditions: 24 h, 1 µM, compound concentration 1 uM, replicate 1
observed_property: Population Membrane Permeable-Phenotype (%)
Give the quantity in %, number only.

Record CCOc1ccn(-c2ccc(F)cc2)c(=O)c1C(=O)Nc1ccc(Oc2ccnc(N)c2Cl)c(F)c1 [BMS-777607] : what is its Population Membrane Permeable-Phenotype (%) with Fibroblast?
8

Moving on to `N#Cc1cccc(C(=O)Nc2cc(-c3ccccc3)nn2-c2ccccc2)c1`
34

Another molecule to check: CC(C)[C@H](CO)Nc1nc(Nc2cccc(Cl)c2)c2ncn(C(C)C)c2n1 [PURVALANOLA]
24

And then CC[C@@H]1C(=O)N(C)c2cnc(Nc3ccc(C(=O)N[C@H]4CC[C@H](N5CCN(CC6CC6)CC5)CC4)cc3OC)nc2N1C(C)C [VOLASERTIB] , what is it?
7

Query Cl.Cn1c2c(c3ccc(Cl)c(Cl)c31)C(C#N)C1(CCNCC1)NC2=O (stereo not drawn) next
4

Also N#CCNC(=O)c1ccc(-c2ccnc(Nc3ccc(N4CCOCC4)cc3)n2)cc1 [MOMELOTINIB] ?
27

Queued: `Cc1c(Nc2ccc(S(=O)(=O)N3CCN(C)CC3)cc2F)nc2ccc(Nc3cnn(C4CC4)c3)cn2c1=O`
14

Note: attention shifts to another entry.
What Population Membrane Permeable-Phenotype (%) appears in the records for this molecule with Fibroblast? `CN(c1cc(C(F)(F)F)nc(OCCC(=O)O)n1)c1cccc2c1CCC2`
28

###

Test system: U2OS
test_description: Multiplex assay against U2OS
Assay type: toxicity, cell-based
setup_conditions: human, 48 h, 10 µM, compound concentration 10 uM, replicate 1
observed_property: Population Apoptotic (%)
// return numeric value only (unit: %, not printed)

Some solved cases for reference:
// Population Apoptotic (%) lookup, key: CCCCCNC(=N)N/N=C/c1c[nH]c2ccc(OC)cc12.O=C(O)/C=C\C(=O)O [TEGASEROD MALEATE]
91

Moving on to C[C@@H](Oc1cc(-n2cnc3ccc(CN4CCN(C)CC4)cc32)sc1C(N)=O)c1ccccc1C(F)(F)F [GSK-461364]
98

Also check `CC(C)c1cc(Nc2nc(N3CCC[C@H](N)C3)ncc2C(N)=O)cc(C(C)C)n1`
89

---
Record request: Population Apoptotic (%) value, item `CCCc1cc(C)[nH]c(=O)c1CNC(=O)c1cc(-c2ccc(N3CCN(C(C)C)CC3)nc2)cc2c1cnn2C(C)C`
95

Now try CC(Cc1ccc(O)c(O)c1)C(C)Cc1ccc(O)c(O)c1 (stereo not given) [NORDIHYDROGUAIARETIC ACID] .
72

###

System: U2OS
test_description: Multiplex assay against U2OS
Type: toxicity, cell-based
setup_conditions: human, 12 h, 1 µM, compound concentration 1 uM, replicate 1
observed_property: Population Pyknosed Nuclei (%)
The reply should contain only the number, in %.

Some solved entries appear below for comparison.
Using the record for `CC[C@H](Nc1ncnc2[nH]cnc12)c1nc2cccc(F)c2c(=O)n1-c1ccccc1` , report its Population Pyknosed Nuclei (%).
9

Repeat with `CCCc1cc(C)[nH]c(=O)c1CNC(=O)c1cc(-c2ccc(N3CCN(C(C)C)CC3)nc2)cc2c1cnn2C(C)C`
24

Let us now turn to `CC[C@@H]1C(=O)N(C)c2cnc(Nc3ccc(C(=O)NC4CCN(C)CC4)cc3OC)nc2N1C1CCCC1`
3

Next compound: `Cc1ccc(NC(=O)Nc2cc(C(F)(F)F)ccc2F)cc1Nc1ccc2c(c1)NC(=O)/C2=C\c1ccc[nH]1`
18

Consider next the compound `Cc1c(Nc2ccc(S(=O)(=O)N3CCN(C)CC3)cc2F)nc2ccc(-c3cnn(C4CC4)c3)cn2c1=O` in the same way.
4

---
Given `CC(C)[C@H](CO)Nc1nc(Nc2cccc(Cl)c2)c2ncn(C(C)C)c2n1` , state its recorded Population Pyknosed Nuclei (%).
10

Input `Cc1c(Nc2ccc(S(=O)(=O)N3CCN(C)CC3)cc2F)nc2ccc(Nc3cnn(C4CC4)c3)cn2c1=O`
11

Also check `CN(c1cc(C(F)(F)F)nc(OCCC(=O)O)n1)c1cccc2c1CCC2`
11

###

Test system: Fibroblast
test_description: Multiplex assay against human fibroblast
Format: toxicity, cell-based
setup_conditions: 12 h, 1 µM, compound concentration 1 uM, replicate 1
observed_property: Population Fragmented Nuclei (%)
Return type: number; implicit unit %.

Consider the reported Population Fragmented Nuclei (%) for these compounds:
Which value of Population Fragmented Nuclei (%) has been reported for `CC(C)c1cc(Nc2nc(N3CCC[C@H](N)C3)ncc2C(N)=O)cc(C(C)C)n1` in the records?
33

Note, next up: Cl.Cn1c2c(c3ccc(Cl)c(Cl)c31)C(C#N)C1(CCNCC1)NC2=O (stereo not drawn)
35

How about `CC[C@H](Nc1ncnc2[nH]cnc12)c1nc2cccc(F)c2c(=O)n1-c1ccccc1` ?
26

***
Requested read-out: Population Fragmented Nuclei (%). Entry: `CC(/C=C1\SC(=S)N(CCCC(=O)Nc2ccc(C(=O)O)c(O)c2)C1=O)=C\c1ccccc1`
22

Next: `Cc1c(Nc2ccc(S(=O)(=O)N3CCN(C)CC3)cc2F)nc2ccc(Nc3cnn(C4CC4)c3)cn2c1=O`
30

CC(Cc1ccc(O)c(O)c1)C(C)Cc1ccc(O)c(O)c1 (stereo not drawn) [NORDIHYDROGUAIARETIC ACID] ?
19

Next: `CC[C@@H]1C(=O)N(C)c2cnc(Nc3ccc(C(=O)NC4CCN(C)CC4)cc3OC)nc2N1C1CCCC1`
37

Also CCCCCNC(=N)N/N=C/c1c[nH]c2ccc(OC)cc12.O=C(O)/C=C\C(=O)O [TEGASEROD MALEATE] , if possible.
25

###

Test system: HEK-293T
test_description: Multiplex assay against HEK293T;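 as to Population Tubulin-Different-Phenotype (%): share of the cells with healthy nuclei that show this phenotype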
Format: toxicity, cell-based
setup_conditions: human, 24 h, 10 µM, compound concentration 10 uM, replicate 2
Criterion: Population Tubulin-Different-Phenotype (%) meeting or surpassing 90%. Met: 1 (yes). Not met: 0 (no).

Hi, just wondering whether Cl.Cn1c2c(c3ccc(Cl)c(Cl)c31)C(C#N)C1(CCNCC1)NC2=O (stereo not given) shows Population Tubulin-Different-Phenotype (%) of 90% or higher.
1 (yes)

Moving on to the next compound: CC(Cc1ccc(O)c(O)c1)C(C)Cc1ccc(O)c(O)c1 (stereo not given) [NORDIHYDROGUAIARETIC ACID]
0 (no)

Similarly, CCCCCNC(=N)N/N=C/c1c[nH]c2ccc(OC)cc12.O=C(O)/C=C\C(=O)O [TEGASEROD MALEATE] ?
0 (no)

Lab note: next compound to report on.
Given `CC[C@@]1(O)C(=O)OCc2c1cc1n(c2=O)Cc2cc3ccccc3nc2-1` , state whether its Population Tubulin-Different-Phenotype (%) is at least 90%.
0 (no)
